- SYSTEM_UNDER_TEST: CK2A1 (CK2α/β) (Homo sapiens, UniProt P68400)
- Sequence (P68400 whole entry, species assumed): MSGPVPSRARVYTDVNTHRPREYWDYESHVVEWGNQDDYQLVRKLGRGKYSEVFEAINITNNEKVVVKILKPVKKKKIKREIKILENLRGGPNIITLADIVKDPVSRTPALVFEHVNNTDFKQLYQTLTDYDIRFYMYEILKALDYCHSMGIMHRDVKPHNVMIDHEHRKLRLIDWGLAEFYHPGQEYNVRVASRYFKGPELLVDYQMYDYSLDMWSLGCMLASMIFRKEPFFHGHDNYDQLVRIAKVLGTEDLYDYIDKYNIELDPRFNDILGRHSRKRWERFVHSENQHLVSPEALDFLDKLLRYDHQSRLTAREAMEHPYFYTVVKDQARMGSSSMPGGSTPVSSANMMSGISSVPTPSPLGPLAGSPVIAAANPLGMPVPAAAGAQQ
- Sequence (P67870 whole entry partner, species assumed): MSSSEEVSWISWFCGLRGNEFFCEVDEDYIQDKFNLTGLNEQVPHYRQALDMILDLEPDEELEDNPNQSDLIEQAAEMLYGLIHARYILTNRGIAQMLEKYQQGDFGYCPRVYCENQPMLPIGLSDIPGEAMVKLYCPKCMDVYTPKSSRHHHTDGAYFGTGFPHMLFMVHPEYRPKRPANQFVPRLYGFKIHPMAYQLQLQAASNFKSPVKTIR
- PROTOCOL_NOTES: CK2 kinase assay, CK2A1 (CK2α/β)
- Type: biochemical
- PROTOCOL_CONDITIONS: Table A; read-out: CK2A1 (CK2α/β) (IC50)
Reported IC50 is given for each of the following molecules.
API: value field is a number in nM; no unit string.

MOLECULE: COC(=O)N[C@@H]1CCN(c2cc(C#N)cc(Nc3nc(NC4CC4)c4ncc(C#N)n4n3)c2Cl)C[C@H]1OC(=O)C1(N)CC1
IC50 (nM): 1.25

Qu. # input molecule: CCNc1nc(Nc2cc(C#N)cc(N3CC[C@@H]4[C@@H](C3)OC(=O)N4[C@H]3CCOC3)c2Cl)nn2c(C#N)cnc12 (single isomer, unassigned) [Example 841] ; wanted: its IC50
Ans. 2.31

Qu. Record: N#Cc1cnc2c(NC3CC3)nc(Nc3cc(OC(F)F)cc(N4CCN(C5CNC5)CC4)c3Cl)nn12
Ans. 1.15

Qu. Record: COCCN1CCN(Cc2cc(C#N)cc(Nc3nc(NC4CC4)c4ncc(C#N)n4n3)c2Cl)CC1
Ans. 2.98

Qu. Record: CC(O)CN1CCC2CN(c3cc(C#N)cc(Nc4nc(NC5CC5)c5ncc(C#N)n5n4)c3Cl)CCC21 (racemic)
Ans. 0.89

Qu. Record: N#Cc1cc(Nc2nc(NC3CC3)c3ncc(C#N)n3n2)c(Cl)c(N2CCN([C@H]3C[C@H](O)C3)CC2)c1
Ans. 1.1
